measurement-kind: melting point

>>> reported_result("Nc1c(F)c(F)c(F)c(F)c1NC(=S)Nc1c(Cl)cccc1Cl")
"> 300 °C"
>>> reported_result("COC(=O)CCc1cc2cc(C(F)(F)F)ccc2n1S(=O)(=O)c1ccc2ncsc2c1")
"130 to 132 °C"
>>> reported_result("COc1ccc(C(=CC#N)c2ccc3ccccc3c2)cc1OC")
"121 to 123 °C"
>>> reported_result("Cc1c(C)c(NC(=O)CC(C)(C)C)c2c(c1C)C(c1ccc(C(C)C)cc1)C(C)(C)O2 (stereo not given)")
"152 to 153 °C"
>>> reported_result("Cc1c(CNc2cc(CO)cc(CO)c2)nnn1Cc1ccc(Cl)c(Cl)c1")
"120 °C"
>>> reported_result("O=C(NCCCCCOc1ccc(-n2ccnc2)cc1)c1ccc(Br)cc1")
"150 to 151 °C"

(Q) Would you mind telling me what melting point value was observed for `Cc1ccnc2c(-c3ccc(C)c4c(C)ccnc34)ccc(C)c12` ?
(A) 290 to 295 °C

(Q) Would you mind telling me what melting point value was observed for `CCOc1nn(C(=O)NS(=O)(=O)c2c(Cl)cccc2SC)c(=O)n1C` ?
(A) 144 °C

(Q) Would you mind telling me what melting point value was observed for `Cc1cc(NC(=O)OC(C)(C)C)c(C)c2c1OC(C)(C)C2=O` ?
(A) 144 to 145 °C

(Q) Would you mind telling me what melting point value was observed for `CC(C)(C)c1cc(-n2nc3c(Br)ccc(Br)c3n2)c(O)c(C(C)(C)C)c1` ?
(A) 244 to 246 °C

====

Listed next: entries and their corresponding melting point.

Here are 6 molecules together with their reported answers.
>>> reported_result("NS(=O)(=O)c1ccc2c(c1)C(=NO)CCC2")
"162 to 164 °C"
>>> reported_result("CCC(CC)n1nnc2c(Nc3c(Br)cc(OC)cc3OC)nc(C)cc21")
"166 to 167 °C"
>>> reported_result("Cc1ncc2ccc(-c3ccc(F)cc3)nc2n1")
"> 200 °C"
>>> reported_result("Cc1cc2cc(CN3CCCC3)cnc2cc1NC(=O)c1ccc(-c2ccco2)cc1")
"154 °C"
>>> reported_result("CCCCc1ncc(/C=C(\\Cc2cccs2)C(=O)O)n1Cc1ccc(CC(=O)O)cc1")
"169 to 171 °C"
>>> reported_result("S=C=Nc1ccc2sc(-c3cccs3)nc2c1")
"147 to 149 °C"

(Q) Would you mind telling me what melting point value was observed for CCc1ccc2c(c1)C(=O)Nc1cccnc1N2C(=O)NCCN1CCCCC1CN(CC)CC (stereo not given) ?
(A) 124 to 126 °C

(Q) Would you mind telling me what melting point value was observed for CC(=O)OC(Cn1cncn1)(CC(Cl)(Cl)Cl)c1ccc(Cl)cc1 (stereo not given) ?
(A) 112 to 114 °C

(Q) Would you mind telling me what melting point value was observed for `CC(=O)c1ccc2c(C(=O)c3ccc(OCCN4CCCCC4)cc3)c(-c3ccc(O)cc3)sc2c1` ?
(A) 97 to 100 °C

(Q) Would you mind telling me what melting point value was observed for `CCCSC1=Nc2ccccc2SN1` ?
(A) 168 to 170 °C

====

measurement-kind: melting point

(Q) Would you mind telling me what melting point value was observed for `COc1nnc(-c2cc3c([nH]c2=O)CCN(Cc2ccccc2)C3)o1` ?
(A) 176 to 178 °C

(Q) Would you mind telling me what melting point value was observed for `CC(=O)NC1=CCc2ccccc21` ?
(A) 137 to 138 °C

(Q) Would you mind telling me what melting point value was observed for CCOc1cc(CN2CCN(c3ccc(C(=O)NC)cc3C)CC2)cc2c1OC(C)C(=O)N2 (stereo unspecified) ?
(A) 173 to 180 °C

(Q) Would you mind telling me what melting point value was observed for OC1c2ccccc2CSc2ccc(Br)cc21 (stereo unspecified) ?
(A) 169 to 170 °C

====

Listed next: entries and their corresponding melting point.

Here are 6 compounds together with their reported answers.
>>> reported_result("CCOc1cc(C=C2CCN(C(N)=O)C2=O)ccc1O")
"204 to 205 °C"
>>> reported_result("CC(C)(C)OC(=O)N1C(COc2noc3ccc(Cl)cc23)COC1(C)C (stereo unspecified)")
"117 to 118 °C"
>>> reported_result("COc1ccc(CBr)cc1[N+](=O)[O-]")
"110 to 112 °C"
>>> reported_result("Cn1c(COc2ccc(CC3SC(=O)NC3=O)cc2)nc2ccc(Oc3cccc(NC(=O)Nc4ccc(C(F)(F)F)cc4)c3)cc21 (stereo unspecified)")
"192 to 194 °C"
>>> reported_result("CCCC(=O)c1cnc2c(OCC)nccc2c1Nc1ccccc1C")
"112 °C"
>>> reported_result("Nc1c(Br)cc(C(=O)CCC(=O)O)cc1Br")
"200 to 202 °C"

(Q) Would you mind telling me what melting point value was observed for `CCc1nn(CCO)c(CC)c1Oc1cc(F)cc(-n2cccn2)c1` ?
(A) 120 to 122 °C

(Q) Would you mind telling me what melting point value was observed for `C[C@]1(COC(=O)N2CCc3cc(Cl)ccc32)Cn2cc([N+](=O)[O-])nc2O1` ?
(A) 189 to 191 °C

(Q) Would you mind telling me what melting point value was observed for CN1CCCc2c(NC(=NC#N)NC(NC(=O)Cc3ccc(Cl)cc3)C(C)(C)C)cccc21 (stereo unspecified) ?
(A) 114 to 117 °C

(Q) Would you mind telling me what melting point value was observed for CCCN1CC(CN2CC(=O)NC2=O)CC2c3cccc4[nH]cc(c34)CC21 (stereo unspecified) ?
(A) 168 to 170 °C

(Q) Would you mind telling me what melting point value was observed for `Nc1ccc(-c2nc3c(O)cccc3c(=O)[nH]2)cc1` ?
(A) > 230 °C

(Q) Would you mind telling me what melting point value was observed for CCCCCCCCc1ccc(C(=O)C(O)c2ccccc2)cc1 (stereo unspecified) ?
(A) 65 to 70 °C

(Q) Would you mind telling me what melting point value was observed for `CC(C)(C)c1cccc2c1C(=O)NS2(=O)=O` ?
(A) 185 to 187 °C

(Q) Would you mind telling me what melting point value was observed for Cc1cnccc1C(CCC(=O)O)C(=O)c1cccc(OCc2ccccc2)c1 (racemic) ?
(A) 55 to 57 °C

(Q) Would you mind telling me what melting point value was observed for NC(=O)C1CCc2ccc([N+](=O)[O-])cc21 (stereo unspecified) ?
(A) 144 to 145 °C

(Q) Would you mind telling me what melting point value was observed for `Cc1c(C)c2c(c(Cl)c1C=O)OCC2` ?
(A) 129 °C

(Q) Would you mind telling me what melting point value was observed for `CC(C)(C)N(NC(=O)c1ccccc1)C(=O)c1cccs1` ?
(A) > 200 °C

(Q) Would you mind telling me what melting point value was observed for `CCCn1cnc(C(N)=O)c1N` ?
(A) 241 to 243 °C

(Q) Would you mind telling me what melting point value was observed for `CC(=O)c1cc([N+](=O)[O-])c(F)cc1Cl` ?
(A) 66 to 68 °C

(Q) Would you mind telling me what melting point value was observed for CC(C)(C)c1cc(CCc2ccccc2NC(=O)N2CCCCC2CCOCc2ccccc2)cc(C(C)(C)C)c1O (stereo unspecified) ?
(A) 113 to 114 °C

(Q) Would you mind telling me what melting point value was observed for CC(=O)OC1CSC(Oc2cccc3conc23)C(OC(C)=O)C1OC(C)=O (stereo unspecified) ?
(A) 157 °C

(Q) Would you mind telling me what melting point value was observed for `Nc1ccc(C(=O)NNCCC(=O)OCc2ccccc2)cc1` ?
(A) 96 to 97 °C

(Q) Would you mind telling me what melting point value was observed for `Cn1nc(-c2ccc(OC3CCN(C4CCCC4)CC3)cc2)ccc1=O` ?
(A) 129 to 132 °C

(Q) Would you mind telling me what melting point value was observed for `CCc1nn(-c2ccc(F)cc2)c2cc(Br)ccc12` ?
(A) 72 to 73 °C

====

measurement-kind: melting point (°C)
Give a bare numeral; the unit °C is implied.

>>> reported_result("CNS(=O)(=O)c1ccc(N)c(C(=O)N2CCNCC2)c1")
169

Could you now look at the following compound, please?
(Q) Would you mind telling me what melting point value was observed for CC1(CO)C(=O)N(c2ccc(C#N)c(C(F)(F)F)c2)C(=O)N1CC#N (stereo not given) ?
(A) 171

====

Listed next: entries and their corresponding melting point.

>>> reported_result("CC(=S)Nc1ccc(-c2nc3ccccc3o2)cc1")
"212 to 214 °C"
>>> reported_result("COc1ccc(N2CCN(CCC3OCCc4ccc(C(N)=O)cc43)CC2)cc1 (centres undefined)")
"178 to 180 °C"
>>> reported_result("COc1ccccc1SCc1c(C(C)C)nc(C(C)C)c(CO)c1-c1ccc(F)cc1")
"129 to 131 °C"
>>> reported_result("N#CCN1CCC(NC(=O)c2cc(Cl)c(N)c3c2OCCC3)CC1")
"194 °C"
>>> reported_result("COc1ccc2cc([C@H](C)C(=O)OCC(=O)N3CCC(CCO[N+](=O)[O-])CC3)ccc2c1")
"83 to 85 °C"
>>> reported_result("Cc1cc(-c2cc(C(F)(F)F)n3ncc(-c4nc(-c5ccc(S(N)(=O)=O)cc5)no4)c3n2)ccc1C(F)(F)F")
"273 °C"
>>> reported_result("COc1ccccc1N1CCN(C(=O)c2ccccc2C(c2ccc(O)cc2)c2ccc(O)cc2)CC1")
"229 to 231 °C"
>>> reported_result("CCNc1cncc(C(=NCCc2ccccc2Cl)NC#N)c1")
"168 °C"

Could you now look at the following compound, please?
(Q) Would you mind telling me what melting point value was observed for `COc1ccc2cc([C@H](C)C(=O)OCC(C)(O[N+](=O)[O-])O[N+](=O)[O-])ccc2c1` ?
(A) 67 to 68 °C
